- MEASUREMENT DESCRIPTION: yeast display, Sf9 membrane polyspecificity reagent, FACS + sequencing; frameworks hold sequencing errors

{"SEQ STRING": "QVQLVESGGGLVQAGGSLRLSCAASGYIFVIYAMGWYRQAPGKERELVAAISWGGGSTYYADSVKGRFTISRDNAKNTVYLQMNSLKPEATAVYYCAARGWVVGRISVPGEYWGQGTQVTVSS", "polyreactivity (PSR sort gate)": "high polyreactivity"}
{"SEQ STRING": "QVQLVESGGGLVQAGGSLRLSCAASGRTFHRYAMGWYRQAPGKERELVATISRGGSTNYADSVKGRFTISRDNAQTTVYLQRNSLKTEETAVYYCAREYYGSWDSGGGGYWGQGTQVTVAS", "polyreactivity (PSR sort gate)": "high polyreactivity"}
{"SEQ STRING": "QVQLVESGGGLVQAGGSLRLSCAASGIIFRPYAMGWYRQAPGTEMELVAAITGSGVSTYYADSVKGRFTISRDNAKNTVYLQMNSLKPEDTAVYYCAKRYNRGYHRYDYWGQGTQVTVSS", "polyreactivity (PSR sort gate)": "low polyreactivity"}
{"SEQ STRING": "QFQLVESGGGFVQAGGSLRLSCAASGRIFGPYAMGWYRQAPGKERELVAAISFSGSGTYYADSVKGRFTISRDNAKNTVYLQMNSLKPEDTAVYYCAATSRKIVAYDHDYWGQGTQVTVSS", "polyreactivity (PSR sort gate)": "low polyreactivity"}
{"SEQ STRING": "QVQLVESGGGLVQAGGRLRLSCAASGIIFTPYAMGRYRQAPGKERELVAAISWIGGRTYYADSVKGRFTISRDKAKNTVYLQMNSLKPEDTAVYYCAASYRAWSGNYWGQGTQVTVSS", "polyreactivity (PSR sort gate)": "high polyreactivity"}

* * *

- MEASUREMENT DESCRIPTION: yeast display, Sf9 membrane polyspecificity reagent, FACS + sequencing; frameworks hold sequencing errors

{"SEQ STRING": "QVQLVVSGGGLVQAGGSLRLSCAASGSTLVIYAMGGYRQAPGKERELVAAIRRTGGSTYYADSVKGRFTISRDNAKTTVDLQKNSLKPEDTAVYYCAKRSYTGYEYWGQGTQETVSS", "polyreactivity (PSR sort gate)": "low polyreactivity"}
{"SEQ STRING": "QDQLVESGGGLVQAGGRLRLICAAAGLIFVSNAMGWYRQAPGKERELFASISWSGGSTYYADSVKGRFTISRDNAKNTVYLQMNSLKPEDTAVYYCAAAKYVTYLSIYYYWGQGTQVTVSS", "polyreactivity (PSR sort gate)": "high polyreactivity"}
{"SEQ STRING": "QVQLVESGGGLVQEGGSLRLSCAASGLIFGAYALGWYRQAPGKERELVAAISGRGGSTYYADSVKGRFTISHDNAKNTVYLQMNSLKPEDNAVYYCAAPWRYTYYYWGQGTQVTVSS", "polyreactivity (PSR sort gate)": "high polyreactivity"}
{"SEQ STRING": "QVQLVESGGGLVQAGGSLRLSCAASGGTFGYYAMGWYRQAPGKDRELVAGINYSGGRTYYADSVKGRFTISRDNAKNTVYLQMNSLKPEDTAVYYCAAQAYVGYRGYDYWGQGTQVTVSS", "polyreactivity (PSR sort gate)": "high polyreactivity"}
{"SEQ STRING": "QVQLVETGGGLVQAGGSLRLSCAASGFTFYSYAMGWSRQSPRKEREFVAAGSTYYADSVKGRFTISRDYAKNTVYLQMNSLKPEDTAVYYCAADSYDVSRRYEYEYWVQGTQVTVSS", "polyreactivity (PSR sort gate)": "low polyreactivity"}

* * *

- MEASUREMENT DESCRIPTION: yeast display, Sf9 membrane polyspecificity reagent, FACS + sequencing; frameworks hold sequencing errors
MEASURED PROPERTY: polyreactivity (PSR sort gate)

{"SEQ STRING": "QVQRVESGGGLVQAVGSLRLSCPASGIISVCNARGWYRQAPGKERELVASINSGGSTNYADSVKGRFTISRDNAKNTVYLQMNSLKPEDTAVYYCARLHDIRSPYSGTPVRDLPDEDDYWGQGTQVTVSS", "MEASURED PROPERTY": "polyreactivity (PSR sort gate)", "ASSAY RESULT": "low polyreactivity"}
{"SEQ STRING": "QVHLVESVGGLVQAGGSHRLSCAASGRTLGFYAMGWYRQAPGKERELVAAINWSGGSTYYADSVKGRFTISRDNAKNTVYLQMNSLKPEDTAVYNCGVGTNYYDYWGQGTQVTVSS", "MEASURED PROPERTY": "polyreactivity (PSR sort gate)", "ASSAY RESULT": "high polyreactivity"}
{"SEQ STRING": "QVQLVESVVGLVQARGTLRLSGATTGNTFYKNTMRWYRQPHGKERELVAAISQRGTRTYYADSVQGRFTISRDYAKNTVYLQMNSLKPEDTAVYYCPTVMSQVGFDYWGQGTQVTVSS", "MEASURED PROPERTY": "polyreactivity (PSR sort gate)", "ASSAY RESULT": "high polyreactivity"}
{"SEQ STRING": "QVPLVESGGGLVQAGGSLRLSCAASGRLFGYNTMGWYRQAPGKERELVARISYDVDSTYYADSVKGRFTISRDNAKNTVYLQMNSLKPEDTAVYYCNARRSNLGSYIEYFGFDYWGQGTQVTVSS", "MEASURED PROPERTY": "polyreactivity (PSR sort gate)", "ASSAY RESULT": "low polyreactivity"}
{"SEQ STRING": "QVQLVESGGGLVQAGGSLRLSCAASGSIFGLNAMGWYRPEPGQESALVAAISYSGGTTYYADSVKGRFTISRDNAKNSVYLQMNSLKPEDTAVYYCATRARYVGGYKYNYWGQGTQVTVSS", "MEASURED PROPERTY": "polyreactivity (PSR sort gate)", "ASSAY RESULT": "high polyreactivity"}
{"SEQ STRING": "QVQLVESGAGLVQAGGSLRLSCAASGSTFNHYAMGWYRPAPGKDRELVAAITWSGDSTYYADSVKGRFTISRDNAKNTVYLQMNSLKPEDTAVYDCNTYRIFGYSPYYAGYDYWGQGTQVTVSS", "MEASURED PROPERTY": "polyreactivity (PSR sort gate)", "ASSAY RESULT": "low polyreactivity"}
{"SEQ STRING": "QLQLVESGGGLVQAGGSLRLSCAASGFTFQYYAMGWYRQAPCKERELVAVISRSGGRTYYADSVKGRFTISRDNAKYTVYLQMYSLKPEDTAVYYCAALSQPGQRDDNQYDYWGQGTQVTVSS", "MEASURED PROPERTY": "polyreactivity (PSR sort gate)", "ASSAY RESULT": "high polyreactivity"}
{"SEQ STRING": "QVQLVESGGGLVQAGGSLRLSCAASGYIFYFNAMGRYRQAPGKERELVAVISDRDDSTYYADSVKGRFTISRDNAKNTVYLQMNSLKPEDTAVYYCAADGDTYVDDPYDYWGQGTQVTVSS", "MEASURED PROPERTY": "polyreactivity (PSR sort gate)", "ASSAY RESULT": "low polyreactivity"}
{"SEQ STRING": "QVQLVESGGGLVQAGGSLRLSCAASGYIIARNAMGWYRQAPGKERELVAAIRSSGGSTYYADSVKGRFTISRDNAKNTVYLQMNSLKPEDTAVYYCAARILKRPKLYDYWGQGTQVTVSS", "MEASURED PROPERTY": "polyreactivity (PSR sort gate)", "ASSAY RESULT": "high polyreactivity"}
{"SEQ STRING": "QVQLVESGGGLVQAGGSLRLSCAASGRTFRTNDMGWYRQAPGKERELVAAISRGGGSTYYADSVKGRFTISRDNAKNTVYLQMNSLKPEDTAVYYCNALRNGIAFGAMDYWGQGTQVTVSS", "MEASURED PROPERTY": "polyreactivity (PSR sort gate)", "ASSAY RESULT": "high polyreactivity"}
{"SEQ STRING": "QVQLVESGGGLVQAGGSLRLSCAASGSTFWLYAMGWYRQAPGKERELVAAIRSGDRTNYADSVKGRFTISRDNAKHTVYLQMNSLKPEDTAVYYCAVRRWGTSFVEDDYWGQGTQVTVSS", "MEASURED PROPERTY": "polyreactivity (PSR sort gate)", "ASSAY RESULT": "low polyreactivity"}
{"SEQ STRING": "QVQLVESGGGLVQAGGSLRLSCAASGSTFDYYTMGGYRQAPGKERELVAAISSSGGSTYYADSVKGRFTISRDNAKNNVYLQMISLKPEDTAVYYCAADASPYGDVYDYWGQGTQVTVSS", "MEASURED PROPERTY": "polyreactivity (PSR sort gate)", "ASSAY RESULT": "low polyreactivity"}
{"SEQ STRING": "QVQLVESGGGLDHAGGRLRLSCAASGSIFIYYAMGWYRQAPGKERELVAAISNGGSTNYADSVKGRFTFSRDNAKNTVYLQMNSLKPEDTAVYYCNTDWGYFHGVRAYLGYGYWGQGTQVTVSS", "MEASURED PROPERTY": "polyreactivity (PSR sort gate)", "ASSAY RESULT": "low polyreactivity"}
{"SEQ STRING": "QDQHVESGGGLDQAGGSLRLSCAASGRIFSYNTMGWYRQAPGQERELVAASSSSGGSTYYADSVKGRFTISRDNAKNTVYLQMNSLKPEDTAVYYCNAVGRFSTRREYWGQGTQVTVSS", "MEASURED PROPERTY": "polyreactivity (PSR sort gate)", "ASSAY RESULT": "high polyreactivity"}
{"SEQ STRING": "QVQLVESGGGLVQAGGSHRLSCAASGRIFGCYTMGWYRQAPAKERELVAGITRRGGRTYYADSVKGRFTISRDTAKYTVYLQMNSLKPEDTAVYYCAVRSGVNFYYWGHGTQVTVSS", "MEASURED PROPERTY": "polyreactivity (PSR sort gate)", "ASSAY RESULT": "high polyreactivity"}
{"SEQ STRING": "QVQLVESGGGLYQAGGSLRLSSAASGRIFPWNTMGWYRQAPGKERELVAGINNGDRTYYADSVKGRFTISRDNAKNTVYLQMNSQKPEDTAVYYCAVDTWYFLFQYGYYQEGDYWGQGTQVTVSS", "MEASURED PROPERTY": "polyreactivity (PSR sort gate)", "ASSAY RESULT": "low polyreactivity"}
{"SEQ STRING": "QVQLVYSGGGLVQAGGSLRISCAPSGRTYRKYAMGWYIQAPGKERELVAANSRSGGSTYYANSVKGRFTISRDIAKNTFYLQMNSLKPDDTAVYYCAAVPVHTGSLYWGFTTGYDYWGQVTQVTVSS", "MEASURED PROPERTY": "polyreactivity (PSR sort gate)", "ASSAY RESULT": "low polyreactivity"}
{"SEQ STRING": "QVQLVESGGGLVQAGGSLRLSCAASGRIIYGYAMGWDRQAPGKEREFVARINVSGTSTFYADSVKGRFTISRDNAKNTVYLQMNSLKTVDTAVYDCAARGLPSNYYYYVHGYIMDHWGQGTQVSVSS", "MEASURED PROPERTY": "polyreactivity (PSR sort gate)", "ASSAY RESULT": "low polyreactivity"}
{"SEQ STRING": "QVQLVESGGGLVHAGGSLRLSCAASGSTFGRYTMGWYRQAPGKERELVAAISYSSGRTYYADSVKGRFTISRDNGKNTVYLQMNSLKAEDSAVYYCAAVSRGRGEYDYWGQGTQVTVSS", "MEASURED PROPERTY": "polyreactivity (PSR sort gate)", "ASSAY RESULT": "high polyreactivity"}
{"SEQ STRING": "QVQLVESGGGLVQAGGSLRLSCAASGSSFDDYTMVWYRQAPGKERELVADSTESGGTTYADSVKGRFTISRDNAKNTVYLQMYSLKPVDTAVYYCNADIYISPLVQVSKGYDYWGQGTQVTVSS", "MEASURED PROPERTY": "polyreactivity (PSR sort gate)", "ASSAY RESULT": "low polyreactivity"}
{"SEQ STRING": "QVQLVESGGGLVQAGGSLGLSCAASGSIFGYYALGWYRPAPGKERELVAAISWSDGSTYYADSVKGRFTISRDNAKNTVYLQMNSLKPEDTAVYDCAARFTPYITSADGHYDYWGQGTQVTVSS", "MEASURED PROPERTY": "polyreactivity (PSR sort gate)", "ASSAY RESULT": "low polyreactivity"}
